- assay-system: EGFR wildtype (Homo sapiens, UniProt P00533)
- Sequence (P00533 25-1210): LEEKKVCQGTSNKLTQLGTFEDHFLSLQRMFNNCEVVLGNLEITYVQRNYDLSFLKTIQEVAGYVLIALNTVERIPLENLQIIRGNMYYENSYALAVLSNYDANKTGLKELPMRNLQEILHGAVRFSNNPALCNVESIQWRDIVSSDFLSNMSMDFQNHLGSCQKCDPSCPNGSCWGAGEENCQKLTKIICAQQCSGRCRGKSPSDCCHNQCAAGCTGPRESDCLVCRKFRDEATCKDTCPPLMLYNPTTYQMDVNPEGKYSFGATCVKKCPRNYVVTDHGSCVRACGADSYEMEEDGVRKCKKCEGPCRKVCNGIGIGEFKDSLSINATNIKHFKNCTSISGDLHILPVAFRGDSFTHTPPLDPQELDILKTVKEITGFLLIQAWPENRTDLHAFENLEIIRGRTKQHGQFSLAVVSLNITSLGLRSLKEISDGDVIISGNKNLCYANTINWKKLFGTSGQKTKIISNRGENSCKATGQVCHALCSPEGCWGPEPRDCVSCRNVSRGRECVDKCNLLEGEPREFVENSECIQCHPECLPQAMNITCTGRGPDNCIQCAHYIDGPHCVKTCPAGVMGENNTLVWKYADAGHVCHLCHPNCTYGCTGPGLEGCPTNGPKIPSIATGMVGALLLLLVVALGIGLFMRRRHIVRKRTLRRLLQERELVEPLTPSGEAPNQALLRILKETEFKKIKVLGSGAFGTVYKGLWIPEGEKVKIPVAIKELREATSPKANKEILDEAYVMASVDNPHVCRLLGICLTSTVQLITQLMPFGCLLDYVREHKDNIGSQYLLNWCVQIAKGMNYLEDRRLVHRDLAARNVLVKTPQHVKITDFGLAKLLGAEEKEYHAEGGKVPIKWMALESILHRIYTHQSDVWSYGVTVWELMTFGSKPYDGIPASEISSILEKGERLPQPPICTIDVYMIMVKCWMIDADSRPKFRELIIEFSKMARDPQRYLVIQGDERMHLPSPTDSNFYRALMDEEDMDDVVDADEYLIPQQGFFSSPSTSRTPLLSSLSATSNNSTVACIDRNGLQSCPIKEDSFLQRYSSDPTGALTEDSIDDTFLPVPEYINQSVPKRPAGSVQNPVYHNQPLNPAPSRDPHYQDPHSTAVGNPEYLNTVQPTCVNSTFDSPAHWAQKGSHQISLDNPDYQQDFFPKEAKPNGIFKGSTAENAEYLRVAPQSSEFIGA
- experiment-summary: Biochemical EGFR kinase assay (Lance Ultra TR-FRET), wildtype
- condition-parameters: Km ATP; read-out: IC50 WT (nM) Km ATP
Would you kindly list IC50 for each of these compounds?
One number for each entry, in nM.

>  <smiles-notation>
CN(C)CCOc1cnc(-c2cnc(Nc3ccnc(-c4cnn(S(=O)(=O)C5CC5)c4)n3)cc2N[C@H]2CC[C@@H](C(C)(C)O)CC2)cn1

>  <test-value>
1.9

$$$$
>  <smiles-notation>
CC(C)N1CCN(Cc2ccc(-c3cnc(Nc4ccnc(-c5cnn(S(=O)(=O)C6CC6)c5)n4)cc3N[C@H]3CC[C@@](C)(O)CC3)nc2)CC1

>  <test-value>
0.5

$$$$

Next compound, please.
[Q] What does the data say about its IC50? Entry: `CC(C)(O)[C@H]1CC[C@@H](Nc2cc(Nc3ccnc(-c4cnn(S(=O)(=O)C5CC5)c4)n3)ncc2-c2ccc(CN3CCOCC3)cn2)CC1`
[A] 1.9

---

- assay-system: EGFR del19/C797S (Homo sapiens, UniProt P00533, C797S/DEL746-750)
- Sequence (P00533 with tags, fused parts or gaps DEL746-750/C797S): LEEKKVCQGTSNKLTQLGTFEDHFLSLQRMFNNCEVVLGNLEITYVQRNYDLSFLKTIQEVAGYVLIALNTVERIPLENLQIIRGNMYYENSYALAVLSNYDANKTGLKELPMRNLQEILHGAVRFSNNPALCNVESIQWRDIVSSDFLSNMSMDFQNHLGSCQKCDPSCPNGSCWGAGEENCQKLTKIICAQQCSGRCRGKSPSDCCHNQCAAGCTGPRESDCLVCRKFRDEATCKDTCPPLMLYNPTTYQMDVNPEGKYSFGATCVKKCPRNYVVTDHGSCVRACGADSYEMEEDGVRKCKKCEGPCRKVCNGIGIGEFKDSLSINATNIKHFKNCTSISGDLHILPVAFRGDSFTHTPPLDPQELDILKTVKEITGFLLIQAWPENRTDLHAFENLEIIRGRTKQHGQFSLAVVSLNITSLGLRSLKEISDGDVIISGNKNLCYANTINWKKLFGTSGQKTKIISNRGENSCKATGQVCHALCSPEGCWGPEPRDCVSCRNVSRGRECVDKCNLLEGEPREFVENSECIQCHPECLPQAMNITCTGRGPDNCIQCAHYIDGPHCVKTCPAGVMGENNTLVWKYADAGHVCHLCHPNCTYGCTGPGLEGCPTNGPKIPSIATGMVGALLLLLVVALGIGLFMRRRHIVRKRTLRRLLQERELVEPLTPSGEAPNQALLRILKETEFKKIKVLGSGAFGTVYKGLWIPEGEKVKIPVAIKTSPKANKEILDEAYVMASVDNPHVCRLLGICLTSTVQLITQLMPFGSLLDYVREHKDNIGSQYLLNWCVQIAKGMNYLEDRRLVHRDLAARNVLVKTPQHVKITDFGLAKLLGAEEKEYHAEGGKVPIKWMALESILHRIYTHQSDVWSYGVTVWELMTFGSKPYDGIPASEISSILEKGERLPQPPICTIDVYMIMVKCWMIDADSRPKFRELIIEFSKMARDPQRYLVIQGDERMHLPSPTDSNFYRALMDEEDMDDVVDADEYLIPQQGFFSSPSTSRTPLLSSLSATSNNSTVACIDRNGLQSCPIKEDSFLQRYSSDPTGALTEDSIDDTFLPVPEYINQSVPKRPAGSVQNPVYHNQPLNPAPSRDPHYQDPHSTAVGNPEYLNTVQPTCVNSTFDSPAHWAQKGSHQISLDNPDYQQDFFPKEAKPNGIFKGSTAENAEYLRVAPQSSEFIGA
- experiment-summary: Biochemical EGFR kinase assay (Lance Ultra TR-FRET), double mutant del19/C797S
- condition-parameters: read-out: IC50 del19/C797S, 100 μM ATP
measured-endpoint: pIC50
One number for each entry, as −log10 of the molar value.

[Q] What does the data say about its pIC50? Entry: `CC(C)(O)[C@H]1CC[C@@H](Nc2cc(Nc3ccnc(-c4cnn(S(=O)(=O)C5CC5)c4)n3)ncc2-c2ccc(N3CC(F)(F)C3)cn2)CC1`
[A] 7.70

---

- assay-system: EGFR del19/C797S (Homo sapiens, UniProt P00533, C797S/DEL746-750)
- experiment-summary: Biochemical EGFR kinase assay (Lance Ultra TR-FRET), double mutant del19/C797S
- condition-parameters: Km ATP; read-out: IC50 del19/C797S (nM) Km ATP
measured-endpoint: log10 IC50 (log10 of the value in nM)
Hello, just confirming the data are log10 of IC50 with units of nM.

For orientation, consider the following solved cases.
>  <molecule>
C[C@]1(O)CC[C@@H](Nc2cc(Nc3ccnc(-c4cnn(S(=O)(=O)C5CC5)c4)n3)ncc2-c2cnc(OC3COC3)cn2)CC1 [Example 150]

>  <log10 IC50>
-0.30

$$$$
>  <molecule>
C[C@]1(O)CC[C@@H](Nc2cc(Nc3ccnc(-c4cnn(S(=O)(=O)C5CC5)c4)n3)ncc2-c2ccc(N3CCOCC3)nn2)CC1 [Example 43]

>  <log10 IC50>
-0.40

$$$$
>  <molecule>
C[C@]1(O)CC[C@@H](Nc2cc(Nc3ccnc(-c4cnn(S(=O)(=O)C5CC5)c4)n3)ncc2-c2ccc(OC(F)F)cn2)CC1 [Example 332]

>  <log10 IC50>
0.38

$$$$
>  <molecule>
CC(C)(O)c1ccnc(-c2cnc(Nc3ccnc(-c4cnn(S(=O)(=O)C5CC5)c4)n3)cc2N[C@H]2CC[C@@H](CO)CC2)c1 [Example 111]

>  <log10 IC50>
-0.70

$$$$
>  <molecule>
CC(C)(O)c1ccc(-c2cnc(Nc3ccnc(-c4cnn(S(=O)(=O)C5CC5)c4)n3)cc2N[C@H]2CC[C@@H](CO)CC2)nn1 [Example 87]

>  <log10 IC50>
-0.40

$$$$
>  <molecule>
C[C@]1(O)CC[C@@H](Nc2cc(Nc3ccnc(-c4cnn(S(=O)(=O)C5CC5)c4)n3)ncc2-c2ncccc2OCC(F)F)CC1 [Example 334]

>  <log10 IC50>
2.23

$$$$
>  <molecule>
CC(C)Nc1cc(Nc2ccnc(-c3cnn(S(=O)(=O)C4CC4)c3)n2)ncc1-c1cnc(OCCN(C)C)cn1 [Example 122]

>  <log10 IC50>
0.99

$$$$
>  <molecule>
CC(C)(O)[C@H]1CC[C@@H](Nc2cc(Nc3ccnc(-c4cnn(S(=O)(=O)C5CC5)c4)n3)ncc2-c2cnc(OC(F)F)cn2)CC1 [Example 130]

>  <log10 IC50>
2.45

$$$$

Report log10 IC50 for each item below.
1. CN1CCN(Cc2ccc(-c3cnc(Nc4ccnc(-c5cnn(S(=O)(=O)C6CC6)c5)n4)cc3N[C@H]3CC[C@](O)(CO)CC3)nc2)CC1 [Example 11]
2. CN1CCN(c2ccc(-c3cnc(Nc4ccnc(-c5cnn(S(=O)(=O)C6CC6)c5)n4)cc3N[C@H]3CC[C@@](C)(O)CC3)nn2)CC1 [Example 46]
3. O=S(=O)(C1CC1)n1cc(-c2nccc(Nc3cc(NC4CCC(CO)CC4)c(-c4ccc(N5CCOCC5)cn4)cn3)n2)cn1 (stereo not shown) [Example 57]
4. CC(C)(O)c1cc(-c2cnc(Nc3ccnc(-c4cnn(S(=O)(=O)C5CC5)c4)n3)cc2N[C@H]2CC[C@@H](CO)CC2)ncc1F [Example 105]
5. O=S(=O)(C1CC1)n1cc(-c2nccc(Nc3cc(N[C@H]4CC[C@@H](CO)CC4)c(-c4ccc(CN5CCC(O)CC5)cn4)cn3)n2)cn1 [Example 99]

[A]
1. -0.70
2. -0.70
3. 0.30
4. 0.48
5. -0.52
